# system: T1, human Y2 receptor (human, UniProt P49146 1-381)
# T1 construct: whole, on cells; used as membrane fraction of hY2R/CHO cells; also called human NPY2R; hY2R
# T1 sequence (looked up): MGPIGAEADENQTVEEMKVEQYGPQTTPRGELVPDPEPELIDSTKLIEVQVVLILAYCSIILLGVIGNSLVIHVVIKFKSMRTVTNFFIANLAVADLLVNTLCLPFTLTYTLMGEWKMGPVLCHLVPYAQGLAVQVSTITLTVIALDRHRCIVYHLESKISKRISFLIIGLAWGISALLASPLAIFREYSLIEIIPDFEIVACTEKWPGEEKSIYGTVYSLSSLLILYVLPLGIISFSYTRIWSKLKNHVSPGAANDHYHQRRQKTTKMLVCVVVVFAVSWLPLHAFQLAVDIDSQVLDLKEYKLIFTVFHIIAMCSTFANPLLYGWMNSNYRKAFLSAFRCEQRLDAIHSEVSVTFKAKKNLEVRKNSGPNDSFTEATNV
# assay-text: RBA: [125I]-PYY displacement, hY2R/CHO membranes
Non-standard residues stand in square brackets, D forms with d. No end group written: not given here. *: point of attachment. Morpholinocarbonyl = O=C(N1CCOCC1)*; Cha = N[C@@H](CC1CCCCC1)C(=O)O; 4Amb = NCc1ccc(C(=O)O)cc1; Aib = CC(C)(N)C(=O)O
measurement-name: IC50 Ratio (vs PYY(3-36))
Dear colleague, please send the value followed by its unit.

Some entries whose results are on file:
IC50 Ratio (vs PYY(3-36)) for {4‑(((imino(octylamino)methyl)amino)methyl)benzoyl}-RAYINLITRQRY-NH2 (also called compound No. 28) [4-({[imino(octylamino)methyl]amino}methyl)benzoyl-[Ala26, Ile28,31]-PYY(25-36)] is 14 ratio

IC50 Ratio (vs PYY(3-36)) for [4Amb]RAYINLATRQRY-NH2 (N-terminus assumed; SMILES CC[C@H](C)[C@H](NC(=O)[C@H](Cc1ccc(O)cc1)NC(=O)[C@H](C)NC(=O)[C@H](CCCNC(=N)N)NC(=O)c1ccc(CN)cc1)C(=O)N[C@@H](CC(N)=O)C(=O)N[C@@H](CC(C)C)C(=O)N[C@@H](C)C(=O)N[C@H](C(=O)N[C@@H](CCCNC(=N)N)C(=O)N[C@@H](CCC(N)=O)C(=O)N[C@@H](CCCNC(=N)N)C(=O)N[C@@H](Cc1ccc(O)cc1)C(N)=O)[C@@H](C)O, also called compound No. 33) [4-Aminomethylbenzoyl-[Ala26,31, Ile28]-PYY(25-36)] is 23 ratio

IC50 Ratio (vs PYY(3-36)) for Morpholinocarbonyl-E[dP]RH[Cha][Cha]NK[Aib]TRQR[Cha]-NH2 (SMILES C[C@@H](O)[C@H](NC(=O)C(C)(C)NC(=O)[C@H](CCCCN)NC(=O)[C@H](CC(N)=O)NC(=O)[C@H](CC1CCCCC1)NC(=O)[C@H](CC1CCCCC1)NC(=O)[C@H](Cc1c[nH]cn1)NC(=O)[C@H](CCCNC(=N)N)NC(=O)[C@H]1CCCN1C(=O)[C@H](CCC(=O)O)NC(=O)N1CCOCC1)C(=O)N[C@@H](CCCNC(=N)N)C(=O)N[C@@H](CCC(N)=O)C(=O)N[C@@H](CCCNC(=N)N)C(=O)N[C@@H](CC1CCCCC1)C(N)=O, also called compound No. 191) [Morpholinocarbonyl-[Glu23, D-Pro24, Cha27,28,36, Lys30, Aib31]-PYY(23-36)] is 1.4 ratio

IC50 Ratio (vs PYY(3-36)) for Ac-S[dP]RH[Cha][Cha]NL[Aib]TRQRF-NH2 (SMILES CC(=O)N[C@@H](CO)C(=O)N1CCC[C@@H]1C(=O)N[C@@H](CCCNC(=N)N)C(=O)N[C@@H](Cc1c[nH]cn1)C(=O)N[C@@H](CC1CCCCC1)C(=O)N[C@@H](CC1CCCCC1)C(=O)N[C@@H](CC(N)=O)C(=O)N[C@@H](CC(C)C)C(=O)NC(C)(C)C(=O)N[C@H](C(=O)N[C@@H](CCCNC(=N)N)C(=O)N[C@@H](CCC(N)=O)C(=O)N[C@@H](CCCNC(=N)N)C(=O)N[C@@H](Cc1ccccc1)C(N)=O)[C@@H](C)O, also called compound No. 143) [Ac-[D-Pro24, Cha27,28, Aib31, Phe36]-PYY(23-36)] is 2.9 ratio

Next binder, please.
IC50 Ratio (vs PYY(3-36)) for [4Amb]RRYINLITRQRY-NH2 (N-terminus assumed; SMILES CC[C@H](C)[C@H](NC(=O)[C@H](Cc1ccc(O)cc1)NC(=O)[C@H](CCCNC(=N)N)NC(=O)[C@H](CCCNC(=N)N)NC(=O)c1ccc(CN)cc1)C(=O)N[C@@H](CC(N)=O)C(=O)N[C@@H](CC(C)C)C(=O)N[C@H](C(=O)N[C@H](C(=O)N[C@@H](CCCNC(=N)N)C(=O)N[C@@H](CCC(N)=O)C(=O)N[C@@H](CCCNC(=N)N)C(=O)N[C@@H](Cc1ccc(O)cc1)C(N)=O)[C@@H](C)O)[C@@H](C)CC, also called compound No. 18) [4-Aminomethylbenzoyl-[Arg26, Ile28,31]-PYY(25-36)] is 4 ratio
